- assay name: Cellular Toxicity (caspase-3) Jurkat (AID 655);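 also: cells exposed to compound for 16 h at 37 °C before reading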
- recorded conditions: Jurkat caspase-3 activation, luminescence; at 92.2 µM (top of the series), DMSO = 0%, tamoxifen = 100%
Results filed as inconclusive are left out.
Please provide measured caspase-3 activation for the entries that follow.
Answers are plain numbers, in %.

// for each molecule in input: emit caspase-3 activation
1. Oc1ccc(Cl)cc1Cc1ccccc1
2. C[C@]12C/C(=C/O)C(=O)C[C@@H]1CC[C@@H]1[C@@H]2CC[C@@]2(C)[C@H]1CC[C@]2(C)O
3. CCOP(=S)(OCC)Oc1cc(C)nc(C(C)C)n1

[18.5, 15, 1.42]

Each molecule below has a reported value. Please supply its caspase-3 activation.
1. CCCC(C)(COC(N)=O)COC(=O)NC(C)C (stereo not drawn)
2. CNCC(O)c1ccc(O)cc1 (stereo not drawn)
3. c1ccc2c(c1)Nc1ccccc1S2
4. OCCOc1ccccc1
5. Oc1ccccc1-c1ccccc1

1: 1.39; 2: 2.25; 3: 0.561; 4: -1.54; 5: 82.5

* * *

- recorded conditions: Ebola virus entry assay, blue channel fluorescence
Activity calls are given as the source filed them.
quantity kind: AC50

Example cases with answers are listed next.
INSERT INTO results (compound, quantity_kind, observed_result) VALUES
  ('Cc1ccc2c(n1)Oc1ccc(C(C)C(=O)OCC(=O)N(C)C)cc1C2 (configuration not stated)', 'AC50', 'inactive'),
  ('Cc1ccc(C)c(OCCCC(C)(C)C(=O)O)c1', 'AC50', 'inactive'),
  ('COc1ccccc1N1CCNCC1', 'AC50', 'inactive'),
  ('CCCc1nc2c(C)cc(-c3nc4ccccc4n3C)cc2n1Cc1ccc(-c2ccccc2C(=O)O)cc1', 'AC50', 'inactive');

// for each compound below, give its AC50
1. O=C(O)CCNC(=O)c1ccc(N=Nc2ccc(O)c(C(=O)O)c2)cc1
2. NC1[C@H]2CN(c3nc4c(cc3F)c(=O)c(C(=O)O)cn4-c3ccc(F)cc3F)C[C@@H]12 (some centres not stated)

["inactive", "inactive"]

Dear reader, for each entry below, please note its AC50.
1. CC1(CN2CCC(n3c(=O)[nH]c4ccccc43)CC2)OCc2ccccc2-n2cccc21 (configuration not stated)
2. COc1cc([C@@H]2c3cc4c(cc3[C@H](O)[C@H]3COC(=O)[C@H]23)OCO4)cc(OC)c1OC
3. CCCN1C[C@H](CSC)C[C@@H]2c3cccc4[nH]cc(c34)C[C@H]21
4. CC(C)C[C@H](NC(=O)[C@H](Cc1ccccc1)NC(=O)c1cnccn1)B(O)O
5. CC[N+]1(C)CCCC(OC(=O)C(O)(c2ccccc2)c2ccccc2)C1 (configuration not stated)
6. NC(=O)NO
7. CC(CCc1ccccc1)NC(C)C(O)c1ccc(O)cc1 (configuration not stated)

20 µM (active)
11.2 µM (active)
11.2 µM (active)
0.0794 µM (active)
inactive
inactive
35.5 µM (active)

* * *

- assay name: Cellular Toxicity (caspase-3) SHSY5Y (AID 657);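 also: cells exposed to compound for 16 hours at 37 °C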
- recorded conditions: SH-SY5Y caspase-3 activation; series mostly up to 91.7 µM
The source made the active and inactive calls. Calls follow the shape of the dose curve; as a rule, active = well fitted activation curve with a large enough effect; inconclusive = small, poorly fitted or top-dose-only effect; inactive = flat fitted curve, though single readings scatter.
# output must be one of active, inactive

Example results:
INSERT INTO assay_data (compound, assigned_label) VALUES
  ('CNCC(O)c1ccc(O)cc1 (centres undefined)', 'inactive'),
  ('N[C@@H](Cc1ccc(N(CCCl)CCCl)cc1)C(=O)O', 'active'),
  ('Oc1ccccc1-c1ccccc1', 'inactive'),
  ('c1ccc2c(c1)Nc1ccccc1S2', 'inactive');

Can you look up the reported call for Oc1ccc(Cl)cc1Cc1ccccc1 for me? inactive

Query: recorded result category for Clc1ccc(COC(Cn2ccnc2)c2ccc(Cl)cc2Cl)cc1 (centres undefined) in this test inactive

* * *

- System: ECU
- assay name: qHTS profiling for inhibitors of Plasmodium falciparum proliferation (AID 504749); also: nearly all actives have a fitted effect of over 60% in size; also: potency is read from the fitted curve at half-maximal effect
- recorded conditions: P. falciparum in erythrocytes, SYBR Green DNA, 72 h; series mostly up to 28.7 µM
Records with an inconclusive call do not appear. Calls of active or inactive are those of the source. Calls follow the shape of the dose curve; as a rule, active = well fitted inhibition curve with a large enough effect; inconclusive = small, poorly fitted or top-dose-only effect; inactive = flat fitted curve, though single readings scatter.
quantity kind: Potency

Please review the entries below; each comes with its answer.
INSERT INTO measurements (molecule, observed_result) VALUES
  ('CCCC(C)(COC(N)=O)COC(=O)NC(C)C (stereo unspecified)', 'inactive'),
  ('CCCC1CCCCN1 (stereo unspecified)', 'inactive'),
  ('COc1ccc(C(=O)c2c(C)n(CCN3CCOCC3)c3ccccc23)cc1', 'inactive'),
  ('CCOC(=O)C1(c2ccccc2)CCN(CCC(C#N)(c2ccccc2)c2ccccc2)CC1', '3.98 µM (active)');

For each of the molecules below, note its Potency.
1. COc1ccc(C(CN(C)C)C2(O)CCCCC2)cc1 (stereo unspecified)
2. C=C(C)[C@H]1Cc2c(ccc3c2O[C@@H]2COc4cc(OC)c(OC)cc4[C@@H]2C3=O)O1
3. CC(C)(N)Cc1ccc(Cl)cc1
4. CCN(CC)CCOC(=O)C(O)(c1ccccc1)c1ccccc1
5. O=C(O)c1ccc2[nH]cc(CCCCN3CC=C(c4ccccc4)CC3)c2c1
6. CC(C)=CC1C(C(=O)OCc2cccc(Oc3ccccc3)c2)C1(C)C (stereo unspecified)
7. CN(C)CCc1ccc(O)cc1
8. Clc1cccc(N2CCNCC2)c1

["inactive", "inactive", "inactive", "inactive", "inactive", "inactive", "inactive", "inactive"]

Working through the 2 molecules below one at a time, give Potency for each.
1. NN=C(N)N
2. CCC1(C2=NCCN2)Cc2ccccc2O1 (stereo unspecified)

1: inactive; 2: inactive

* * *

- measured on: DNA polymerase III PolC-type (Bacillus subtilis (strain 168)) (UniProt P13267)
- Sequence (P13267 whole entry, looked up): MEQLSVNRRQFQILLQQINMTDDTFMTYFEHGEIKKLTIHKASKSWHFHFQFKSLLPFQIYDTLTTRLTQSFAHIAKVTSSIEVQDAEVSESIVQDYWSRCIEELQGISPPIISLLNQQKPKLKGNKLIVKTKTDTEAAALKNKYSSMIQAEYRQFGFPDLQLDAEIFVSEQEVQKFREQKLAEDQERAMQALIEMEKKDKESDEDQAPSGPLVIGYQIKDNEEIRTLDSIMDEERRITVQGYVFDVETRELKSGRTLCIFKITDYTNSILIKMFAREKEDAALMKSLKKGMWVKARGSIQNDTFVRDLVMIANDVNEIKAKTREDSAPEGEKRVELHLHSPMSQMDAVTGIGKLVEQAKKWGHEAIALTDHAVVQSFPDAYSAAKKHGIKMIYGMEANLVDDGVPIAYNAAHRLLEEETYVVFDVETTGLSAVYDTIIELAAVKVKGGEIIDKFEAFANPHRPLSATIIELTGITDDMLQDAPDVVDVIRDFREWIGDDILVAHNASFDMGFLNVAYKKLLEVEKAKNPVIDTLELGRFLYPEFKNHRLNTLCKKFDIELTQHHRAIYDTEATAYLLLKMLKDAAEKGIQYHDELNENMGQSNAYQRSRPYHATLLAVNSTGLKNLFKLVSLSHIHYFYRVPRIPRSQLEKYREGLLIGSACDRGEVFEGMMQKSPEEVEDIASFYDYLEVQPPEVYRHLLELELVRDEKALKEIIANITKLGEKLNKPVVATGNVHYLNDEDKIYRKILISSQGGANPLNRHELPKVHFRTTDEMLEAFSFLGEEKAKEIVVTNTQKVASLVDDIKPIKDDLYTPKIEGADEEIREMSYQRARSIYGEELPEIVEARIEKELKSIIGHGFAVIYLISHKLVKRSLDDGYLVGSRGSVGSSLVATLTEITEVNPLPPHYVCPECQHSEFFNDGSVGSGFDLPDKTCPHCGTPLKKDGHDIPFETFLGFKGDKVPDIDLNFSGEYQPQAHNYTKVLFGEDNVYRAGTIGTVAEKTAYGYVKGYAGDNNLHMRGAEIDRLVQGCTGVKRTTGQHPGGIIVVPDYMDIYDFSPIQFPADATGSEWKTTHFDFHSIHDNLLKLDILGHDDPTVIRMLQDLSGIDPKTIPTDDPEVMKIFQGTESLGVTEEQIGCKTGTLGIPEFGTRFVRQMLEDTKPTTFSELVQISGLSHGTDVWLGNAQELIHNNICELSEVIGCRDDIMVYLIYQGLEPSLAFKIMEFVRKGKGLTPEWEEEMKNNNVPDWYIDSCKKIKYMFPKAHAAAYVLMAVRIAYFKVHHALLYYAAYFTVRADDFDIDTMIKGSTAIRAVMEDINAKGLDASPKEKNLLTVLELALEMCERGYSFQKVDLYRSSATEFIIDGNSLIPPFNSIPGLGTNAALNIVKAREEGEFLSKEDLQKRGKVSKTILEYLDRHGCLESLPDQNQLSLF
- assay name: qHTS Validation Assay for the Inhibitors of DNA Replication in Gram-Positive Bacteria (AID 485295)
- recorded conditions: Gram-positive bacterial DNA replication assay; series mostly up to 57.1 µM
Activity calls are given as the source filed them. The call rests on the fitted dose curve; in most records, active means well fitted inhibition curve with a large enough effect; inconclusive means small, poorly fitted or top-dose-only effect; inactive means flat fitted curve, though single readings scatter.
Hello, when you answer, please use one of the following outcomes: Y = active, N = inactive

Before answering, review these 5 worked examples.
INSERT INTO results (molecule, assigned_label) VALUES
  ('CC[C@@H](CO)NC(=O)[C@@H]1C=C2c3cccc4c3c(cn4C)C[C@H]2N(C)C1', 'Y'),
  ('Cc1cccc(C)c1NC1=NCCCS1', 'N'),
  ('O=c1[nH]c2ccccc2n1CCCN1CCC(n2c(=O)[nH]c3cc(Cl)ccc32)CC1', 'N'),
  ('Cc1ccc(S(=O)(=O)N[C@@H](CCCCN)C(=O)CCl)cc1', 'N'),
  ('Cc1ncc(CNC(=O)N(CCCl)N=O)c(N)n1', 'N');

Give the logged outcome of this assay for the following molecule: c1ccc(C2CC2)c(OCC2=NCCN2)c1 N

Recorded call for COC[C@H]1OC(=O)c2coc3c2[C@@]1(C)C1=C(C3=O)C2CCC(=O)[C@@]2(C)C[C@H]1OC(C)=O (stereo partly specified) ? N

* * *

- Test system: CRL-7250
- assay name: Cytotoxic Profiling of Annotated Libraries Using Quantitative High-Throughput Screening (AID 1296008); also: % is scaled to controls: 0 for no effect and ±100 for the full control effect; nearly all actives have a fitted effect of over 60% in size
- recorded conditions: Five cell lines viability, CellTiter-Glo ATP luminescence, 48-72 h; stronger effect = lower value
Records with an inconclusive call do not appear.
Field: max response. Provide a value for each of the molecules that follow.
Numbers only, in %.

INSERT INTO measurements (molecule, quantity_kind, scale_unit, observed_result) VALUES
  ('C#CCN(C)[C@H](C)Cc1ccccc1', 'max response', '%', -4.73),
  ('CNCC(O)c1ccc(O)cc1 (stereo unspecified)', 'max response', '%', -6.88),
  ('N[C@@H]1C[C@H]1c1ccccc1', 'max response', '%', -2.94),
  ('COC1(CS(=O)c2ccccc2)CCN(CCc2c[nH]c3ccc(F)cc23)CC1 (stereo unspecified)', 'max response', '%', -22.3),
  ('O=C1NCN(c2ccccc2)C12CCN(CC1COc3ccccc3O1)CC2 (stereo unspecified)', 'max response', '%', -15.4);

Now consider the entry below.
# lookup: max response of N[C@@H](Cc1ccc(N(CCCl)CCCl)cc1)C(=O)O -7.43

* * *

- assay name: MultiTox-Fluor Cytotoxicity Assay - LYMP1-002 - Dead Cells (AID 960); also: nearly all actives have a fitted effect of over 60% in size
- recorded conditions: LYMP1-002 lymphoblastoid cells, dead-cell protease fluorescence; series mostly up to 46.1 µM
Records with an inconclusive call do not appear. Activity calls are given as the source filed them. Calls follow the shape of the dose curve; as a rule, active = well fitted cell-killing curve with a large enough effect; inconclusive = small, poorly fitted or top-dose-only effect, or effect the other way; inactive = no such curve, though single readings can be large or run the other way.
Reply using exactly one outcome from active, inactive

INSERT INTO results (structure_smiles_string, assigned_label) VALUES
  ('CC(=O)Oc1ccccc1C(=O)Nc1ncc([N+](=O)[O-])s1', 'active'),
  ('Oc1ccc(Cl)cc1Cc1ccccc1', 'inactive'),
  ('CCOP(=S)(OCC)Oc1cc(C)nc(C(C)C)n1', 'inactive'),
  ('N[C@@H](Cc1ccc(N(CCCl)CCCl)cc1)C(=O)O', 'inactive');

Turning now to a further compound:
What did this assay record as the result for CC(C)C(=O)Nc1ccc([N+](=O)[O-])c(C(F)(F)F)c1 ? active
